Source: patent US6670365B1

Study system: COX-1 (Homo sapiens)
Construct: Fresh blood was collected into sterile containers with no anticoagulants; endogenous in cells; host or cells: fresh whole blood without anticoagulants (platelet COX-1, TXB2 read-out)
Sequence (P23219 24-599): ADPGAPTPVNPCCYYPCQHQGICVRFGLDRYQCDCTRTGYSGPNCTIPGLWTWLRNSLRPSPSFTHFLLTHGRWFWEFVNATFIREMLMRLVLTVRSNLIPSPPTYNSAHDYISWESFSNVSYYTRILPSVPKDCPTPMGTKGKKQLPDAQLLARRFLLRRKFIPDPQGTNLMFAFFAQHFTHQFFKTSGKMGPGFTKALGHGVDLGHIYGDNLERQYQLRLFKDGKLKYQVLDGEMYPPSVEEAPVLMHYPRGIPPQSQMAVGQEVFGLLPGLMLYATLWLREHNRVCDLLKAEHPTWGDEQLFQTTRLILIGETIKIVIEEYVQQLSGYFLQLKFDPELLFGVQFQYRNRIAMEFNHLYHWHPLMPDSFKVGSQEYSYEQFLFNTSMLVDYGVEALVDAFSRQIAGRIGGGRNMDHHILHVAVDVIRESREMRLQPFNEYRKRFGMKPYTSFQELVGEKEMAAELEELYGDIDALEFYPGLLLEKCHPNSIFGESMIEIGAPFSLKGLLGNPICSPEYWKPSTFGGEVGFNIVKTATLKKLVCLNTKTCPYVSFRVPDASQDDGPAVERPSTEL
Test protocol: Assay for in vitro COX-1 inhibition in fresh whole blood without anticoagulants (TXB2 by EIA)
Type: cell-based
Applied conditions: no anticoagulants, compound 0.1 to 100 μM, 37° C. for 1 hour, TXB2 levels in plasma by EIA
Could you mark each record true (1) if its IC50 falls strictly under 40 µM, and false (0) if it equals or exceeds it?

Worked examples follow.
[[record]]
smiles_text = "CS(=O)(=O)c1ccc(-c2c(-c3ccc(Cl)cc3)nc3ncccn23)cc1"
study_system = "COX-1 (Homo sapiens)"
label = "false (0)"

[[record]]
smiles_text = "COc1ccc(-c2nc3ccccn3c2-c2ccc(S(C)(=O)=O)cc2)cc1Cl"
study_system = "COX-1 (Homo sapiens)"
label = "false (0)"

[[record]]
smiles_text = "Cc1ccc(-c2nc3ncccn3c2-c2ccc(S(C)(=O)=O)cc2)cc1C"
study_system = "COX-1 (Homo sapiens)"
label = "false (0)"


We next turn to a different compound, shown below.
Does the reported IC50 of the following compound sit strictly below 40 µM? `COc1ccc(-c2nc3ncccn3c2-c2ccc(S(C)(=O)=O)cc2)cc1`
true (1)

====

Readings of log10 of IC50 for the listed compounds
Study system: COX-1 (Homo sapiens)
Construct: Fresh blood was collected into sterile containers with no anticoagulants; endogenous in cells; host or cells: fresh whole blood without anticoagulants (platelet COX-1, TXB2 read-out)
Test protocol: Assay for in vitro COX-1 inhibition in fresh whole blood without anticoagulants (TXB2 by EIA)
Type: cell-based
Applied conditions: no anticoagulants, compound 0.1 to 100 μM, 37° C. for 1 hour, TXB2 levels in plasma by EIA
Record value = log10 of IC50 given in µM.

[[record]]
compound = "COc1ccc(-c2nc3ccccn3c2-c2ccc(S(C)(=O)=O)cc2)cc1 [Product Iccc]"
reported_measurement = 1.60

[[record]]
compound = "Cc1ccn2c(-c3ccc(S(C)(=O)=O)cc3)c(-c3ccc(C)c(C)c3)nc2n1 [Product In]"
reported_measurement = 0.30

[[record]]
compound = "COc1ccc(-c2nc3ncccn3c2-c2ccc(S(C)(=O)=O)cc2)cc1C [Product Ii]"
reported_measurement = 1.48

[[record]]
compound = "CCOc1ccc(-c2nc3ccccn3c2-c2ccc(S(C)(=O)=O)cc2)cc1 [Product Iddd]"
reported_measurement = 1.90

[[record]]
compound = "COc1ccc(-c2nc3ccccn3c2-c2ccc(S(N)(=O)=O)cc2)cc1C [Product Iuuu]"
reported_measurement = 1.40


Please give the measured log10 of IC50 for this compound: COc1ccc(-c2nc3ncccn3c2-c2ccc(S(C)(=O)=O)cc2)cc1Cl [Product Ik]
1.79

Next up: COc1ccc(-c2nc3ccccn3c2-c2ccc(S(C)(=O)=O)cc2)cc1C [Product Ifff]
1.65

====

Study system: COX-1 (Homo sapiens)
Construct: Fresh blood was collected into sterile containers with no anticoagulants; endogenous in cells; host or cells: fresh whole blood without anticoagulants (platelet COX-1, TXB2 read-out)
Test protocol: Assay for in vitro COX-1 inhibition in fresh whole blood without anticoagulants (TXB2 by EIA)
Assay type: cell-based
Applied conditions: no anticoagulants, compound 0.1 to 100 μM, 37° C. for 1 hour, TXB2 levels in plasma by EIA
Experimental: Assay for in vitro COX-1 Inhibition Fresh blood was collected into sterile containers with no anticoagulants. Aliquots of 500 μL were immediately transferred to eppendorf tubes, preloaded with a test compound each, at final concentrations varying from 0.1 to 100 μM. The eppendorf tubes were vortexed and incubated at 37° C. for 1 hour. At the end of incubation, plasma was obtained by centrifugation and stored at −80° C. TXB2 levels in plasma were established using EIA (Cayman Chemical).
Recorded metric: IC50

[[record]]
smiles_text = "Cc1ccc(-c2nc3ncccn3c2-c2ccc(S(N)(=O)=O)cc2)cc1"
reported_measurement = "> 50 µM"

[[record]]
smiles_text = "CS(=O)(=O)c1ccc(-c2c(-c3ccc(F)cc3)nc3ncccn23)cc1"
reported_measurement = "> 50 µM"

[[record]]
smiles_text = "CS(=O)(=O)c1ccc(-c2c(-c3ccccc3)nc3ncccn23)cc1"
reported_measurement = "> 50 µM"

[[record]]
smiles_text = "NS(=O)(=O)c1ccc(-c2c(-c3cccc(F)c3)nc3ccccn23)cc1"
reported_measurement = "> 100 µM"

[[record]]
smiles_text = "Cc1ccccc1-c1nc2ccccn2c1-c1ccc(S(N)(=O)=O)cc1"
reported_measurement = "> 100 µM"


Request the reported IC50 associated with `Cc1ccc(-c2nc3ncccn3c2-c2ccc(S(C)(=O)=O)cc2)cc1`
> 50 µM
